Hello, the source for this data is patent US20240294541A1, in case you need it.

System: A2780Cis (cisplatin-resistant human ovarian cancer)
Assay: In vitro cytotoxicity, SRB assay, A2780Cis
Format: cell-based
Our labelling divides records by SI A2780Cis into ranges: I (below 20), II (20 to below 30), III (30 or more)

### Prompt Bin? `CC[C@@H](C(=O)[C@@H](C)[C@@H](O)[C@H](C)[C@@H]1O[C@@H]([C@@H](CC)C(=O)O)CC[C@@H]1C)[C@H]1O[C@]2(C=C[C@@H](NC(=O)N3CCS(=O)(=O)CC3)[C@]3(CC[C@@](C)([C@H]4CC[C@](O)(CC)[C@H](C)O4)O3)O2)[C@H](C)C[C@@H]1C`
### Response I

### Prompt Another compound to look at: `CC[C@@H](C(=O)[C@@H](C)[C@@H](O)[C@H](C)[C@@H]1O[C@@H]([C@@H](CC)C(=O)O)CC[C@@H]1C)[C@H]1O[C@]2(C=C[C@@H](NC(=O)Nc3ccc(Cl)c(Cl)c3)[C@]3(CC[C@@](C)([C@H]4CC[C@](O)(CC)[C@H](C)O4)O3)O2)[C@H](C)C[C@@H]1C`
### Response III

### Prompt Record: `CC[C@@H](C(=O)[C@@H](C)[C@@H](O)[C@H](C)[C@@H]1O[C@@H]([C@@H](CC)C(=O)O)CC[C@@H]1C)[C@H]1O[C@]2(C=C[C@@H](NC(=O)OCCS(C)(=O)=O)[C@]3(CC[C@@](C)([C@H]4CC[C@](O)(CC)[C@H](C)O4)O3)O2)[C@H](C)C[C@@H]1C`
### Response II

### Prompt Would you mind doing `CC[C@@H](C(=O)[C@@H](C)[C@@H](O)[C@H](C)[C@@H]1O[C@@H]([C@@H](CC)C(=O)O)CC[C@@H]1C)[C@H]1O[C@]2(C=C[C@@H](NC(=O)OCC(F)(F)F)[C@]3(CC[C@@](C)([C@H]4CC[C@](O)(CC)[C@H](C)O4)O3)O2)[C@H](C)C[C@@H]1C` as well?
### Response III

### Prompt What do you get for `CC[C@@H](C(=O)[C@@H](C)[C@@H](O)[C@H](C)[C@@H]1O[C@@H]([C@@H](CC)C(=O)O)CC[C@@H]1C)[C@H]1O[C@]2(C=C[C@@H](NC(=O)N3CCN(S(C)(=O)=O)C3=O)[C@]3(CC[C@@](C)([C@H]4CC[C@](O)(CC)[C@H](C)O4)O3)O2)[C@H](C)C[C@@H]1C` ?
### Response I

### Prompt Now this one: `CC[C@@H](C(=O)[C@@H](C)[C@@H](O)[C@H](C)[C@@H]1O[C@@H]([C@@H](CC)C(=O)O)CC[C@@H]1C)[C@H]1O[C@]2(C=C[C@@H](NC(=O)Nc3c(F)c(F)c(F)c(F)c3F)[C@]3(CC[C@@](C)([C@H]4CC[C@](O)(CC)[C@H](C)O4)O3)O2)[C@H](C)C[C@@H]1C`
### Response III

### Prompt Likewise for `CC[C@@H](C(=O)[C@@H](C)[C@@H](O)[C@H](C)[C@@H]1O[C@@H]([C@@H](CC)C(=O)O)CC[C@@H]1C)[C@H]1O[C@]2(C=C[C@@H](NC(=O)OCCCN(C)C)[C@]3(CC[C@@](C)([C@H]4CC[C@](O)(CC)[C@H](C)O4)O3)O2)[C@H](C)C[C@@H]1C` ?
### Response I

### Prompt And for `CC[C@@H](C(=O)[C@@H](C)[C@@H](O)[C@H](C)[C@@H]1O[C@@H]([C@@H](CC)C(=O)O)CC[C@@H]1C)[C@H]1O[C@]2(C=C[C@@H](NC(=O)N3CCOCC3)[C@]3(CC[C@@](C)([C@H]4CC[C@](O)(CC)[C@H](C)O4)O3)O2)[C@H](C)C[C@@H]1C` ?
### Response II

### Prompt Also `CC[C@@H](C(=O)[C@@H](C)[C@@H](O)[C@H](C)[C@@H]1O[C@@H]([C@@H](CC)C(=O)O)CC[C@@H]1C)[C@H]1O[C@]2(C=C[C@@H](NC(=O)C(N)=O)[C@]3(CC[C@@](C)([C@H]4CC[C@](O)(CC)[C@H](C)O4)O3)O2)[C@H](C)C[C@@H]1C` , if possible.
### Response I
